meta.source: patent US8557998B2

These records show IC50 for CYP2D6 (Homo sapiens, UniProt P10635).
Return type: number; implicit unit µM.

| molecule | value_units | IC50 |
| --- | --- | --- |
| COCCOc1cc(CC2CCN(CCc3ccc4c(c3)C(=O)CCCO4)CC2)ccc1Br | µM | 24.7 |
| COCCOc1cc(CC2CCN(CCc3ccc4c(c3)C(=O)CC4)CC2)ccc1Br | µM | 27.9 |
| O=C1CCCc2ccc(CCN3CCC(Cc4ccc(Br)c(OCCO)c4)CC3)cc21 | µM | 27.9 |

Consider the additional molecule presented here.
[in] I would be grateful if you could share the reported IC50 for COCCOc1cc(CC2CCN(CCc3ccc4c(c3)C(=O)CCO4)CC2)ccc1Br.Cl [Example 4, hydrochloride] .
[out] 22.9
